Test: protease stability score; higher = more stable; yeast display proteolysis, trypsin and chymotrypsin;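 further: relative to predicted unfolded state with 0 unfolded-like and 1 meaning tenfold more protease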
assay readout: protease stability score

>  <record sequence>
HEEEEEIKEATRLFEEIHRTGDERESREMIDPNALFEVGNFKDHGWDSIHVLMRRVKNVKITLDDFKIQGDKVHLHITENFNGKRVHVTIIAVKINGVWFVHKIRYD

>  <value reported>
1.44

$$$$
>  <record sequence>
SEEERDAHEAWRLILETNLTGDEDFSANLMDPDVRITINGRHLHGRELVLRFLNEWRIEFHRVEIKDYEVQGDYVIIIGHMDGILKVDGKEIRFTSDVSIISVKVNGRWLIREIHIK

>  <value reported>
2.7

$$$$
>  <record sequence>
DDHEKDLTDMARRNYHWWKTGDFDRVIDLLDPTTRLIVGDKKFHGWDEFSHALELFRKQLRPNDSKLKREEVYGDKMVIHSHLHGTVDGKEVHHDVIFTFVIIDGRIHLIIIEPR

>  <value reported>
0.516

$$$$
>  <record sequence>
SEIEKESEKIWKIWFHNLETGNWREIARLFDPHARWRELVDGREVNIVGREEVVRLLSENSEHLRLDDFRETSVRVIGDFVRSDVEMVGTVDGQHERRRVEVIIVTINGRLHSITITHL

>  <value reported>
1.15

$$$$
>  <record sequence>
DEDREDVKKYIEDLFHHLETGDFKEIEKNFDPNVRIFIDGRTIHGREEMVRWAEEMRYKLHEVRLHEVETQGEKIHIDLEIDIEIRIGDKRRRIRTRVIIFARKINGRWYVHQTDFR

>  <value reported>
2.71

$$$$

###

Test: protease stability score; higher = more stable; yeast display proteolysis, trypsin and chymotrypsin;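 further: relative to predicted unfolded state with 0 unfolded-like and 1 meaning tenfold more protease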

>  <record sequence>
DEEEHNLKKFLEIFLKAERTGDEEALRRMLDPNTKFVVGDKTYHGREEYIRWLNEIRIHRTEDKHIEVQGNKLHMDTRRRMEIDGREIDTEVRLELEVINGVVKLIIVDIR

>  <protease stability score>
1.86

$$$$
>  <record sequence>
DERERELKQALDLFKDIIKTGDEEALTRLIDPNAKMRVNGQDIHGWHHFILMMIRIYLHMGIKHIIDHRLHIQGDYLHLDTEVHVDGRSIRYHIVLFKFDGRWHLESSSSI

>  <protease stability score>
1.6

$$$$
>  <record sequence>
DELREESEHARQLYWRSIFTGDEDHFEKLLDPNARVYVNGKNLHGREDVLRVFHELRFRRLHWHDFDDQGDKLFFITKTVVDFNGVKMEQRTELYLRKVDGRWHVEEIRFE

>  <protease stability score>
0.997

$$$$
>  <record sequence>
DEEEERLEKLAEILIHYHLTGDFEILLEYADPNVQTEFDGVEIHGMELSNKFLEKSNKKLGVDHRHYKSYSAYGNKVTVLSEIHVNGRKMEVRFRWDVVNGKIQTLHIHFD

>  <protease stability score>
1.05

$$$$
>  <record sequence>
DEEKDIMERIADLMLELSETGDEHTYKRMADPNVRLRFNGVDIHGMDNISKYLKEFFERIDHVEFEIKDFRSFDGRYNNRGLLILNVGDKRIIIDITIRVEVVNGRVKERQVDID

>  <protease stability score>
0.749

$$$$
>  <record sequence>
SEERHAVERYTEELARAISTGDEEKRLELLDPHVRYLQGDKHIHGRDEVWRHEHRQMEDLGVTRIEMRIRHIRIFNGRVEIEGEVRIGEFEMHFIIYVLKIDGRWIITQEEYS

>  <protease stability score>
0.393

$$$$
>  <record sequence>
THLHDQVHKAVEDVERDLMTGNEERLYKLLDPNVRIEYNGQDLHGREIAIHFLIRISNHWRFEDLHIESMNVQGNKATIHSRYVRHIGDKREETHVHLYMVKINGQWFIHSMSFS

>  <protease stability score>
2.25

$$$$
>  <record sequence>
DESHELWRRNLELILQSRHTGDEFLTKELFDPRMRSNVNGVELHGMEEMLKFVSEIRIHVEHFRLHRIETQGDKIHIRAHEVINIEIGDYHVRLDTWVEMHDVKYNGRWFNTEVHIR

>  <protease stability score>
0.979

$$$$
>  <record sequence>
DVEEEYRHVMEEVHKHAMKTGDEQDILHLMDPNARFEVDGKIYIGREWLRRFVDILGVSRIHLHDLKIKDYRIIGNKIEVDGNIDGIVGNKRHEIDSHVISEKIDGRWIIKREKHR

>  <protease stability score>
0.324

$$$$
>  <record sequence>
SEDEKVVFQILRLWVDLLLTGDEEEMLHLADPNTRVEIGEFDDHGREAMEFMIRRFDVIEDIKIRDIRTIDGKVQIHGEVHSHFNGRRFTIHVEIIARKIDGRWKLTSMHFI

>  <protease stability score>
2.08

$$$$
>  <record sequence>
DEDHKEVKHILRMWMENLYTGDEELNNRLLDPNARWEVNGRDIHGRELILKVLSNEYTEWRMKHIKIDHVENVNGQVHVDITIKYDINGQEINLRTHIRIYIINGKIHEIHISIH

>  <protease stability score>
0.576

$$$$
>  <record sequence>
SEVEEFVKRVIHLFHKAFLTGDEHTLIELIDPNARYDVDGRDVHGREIIVEFISTMWRDRGIRIKHVHIEERRYINGRIEIHSKIDVTIGDKREHLETSMIWVKINGQWFIEILIVR

>  <protease stability score>
0.233

$$$$
>  <record sequence>
SEDEEMTRKYFERYIRWLVTGDPKLLSELVDPNVKLIYNGRHLHGREFLVEWEMEILREARLHSVHVRDVKLFNGRLRMDVEINIEIGDKKSVVESNIVALKVNGRWVLESYEVD

>  <protease stability score>
1.42

$$$$
>  <record sequence>
DENSHALEIAFRLFLEYYYTGDPDEMVELADPRTRLFVGEYDSHGREQFETLLREEFKRLGIDVQHITEWEIHVQGDKVILHVRVHEVFNGKETETEIHITMHKIDGRWLISSQKRRIV

>  <protease stability score>
0.626

$$$$
>  <record sequence>
SEEEDKARHLFDRLVHAWHTGDWRELKHLLDPNAKFVLEYGDKKETYHGMDEEIRYLEELHKRVDHIHFLIRHVDIQGDKLRVEGELEYRVGDYERRIPTSYEVIVIDGRIHEIISRIH

>  <protease stability score>
2.11

$$$$
>  <record sequence>
SERDKFTEEVARLWYHLLYTGNEELLQHMMDPDVRVHINGRTVVGRHEATRLLHELSETFGINHIHIHDIKIQGDKSDDDTEIQAPGRRVRVHIHLEIINGRIKRIEFRIE

>  <protease stability score>
1.68

$$$$
>  <record sequence>
DESTEHLHRFFDLLIEWIRTGDEESLNKNADPNTRVEAENHEEHGREKFSKHLSEIMTHMRSHFVLRHVSFVGDKAIFDVEVIIIVNGREIKVRTFIIVVKINGRWLLKSVHIE

>  <protease stability score>
1.6

$$$$
>  <record sequence>
TEEEEIVTRALDKFREDLDTGDWKSIKHNFDPDVRLVFENHSTHGRELAVTIAEHIFKRFDYVHDSRNEHIKFQGDKVEWHSHYDGTINGRRMEVRILLIVRKYNGVWIIEEYLIV

>  <protease stability score>
1.47

$$$$
>  <record sequence>
SEEEEHIREFWNLLLRAYRTGDEKQLRELFDPHVRIHINGKEIHGMEDMIRHIREIRVIITHLELREFSFFNGRAHVDGERDLRITVGEFHRSHRTDVTIITEKVNGQWRIEEVRVH

>  <protease stability score>
1.46

$$$$
>  <record sequence>
TEDEKVNDLAMEEIYTLMLTGDEERMEELFDPNVRMIIDGRRHVGREVFKDHMREWRWERTHVEDQRTFDGRAILHTRVDVTVGDKRRDVRIHIISSKINGRWVIKRIIIE

>  <protease stability score>
0.758

$$$$
>  <record sequence>
DDIEEILKEAFERLIHDLRTGNEDNLRSLIDPNVRLNWNGQELHGREHVLELLTRIKNLRIEDWTTKDQRYQGDKIEMDGILHTRIGDKEIHLETHIHVRKVDGRWKIEQLDFR

>  <protease stability score>
2

$$$$
>  <record sequence>
TDLEELFDYAIDLLRSLLLTGDEHMSVRLADPNTKLEVNGRYIHGREKFREWFRWFLEHLRFDHLHIHSVETQGDYAFMDSRVHLRYGDKVIEFITHQIVLKFDGRWYLHSMEIR

>  <protease stability score>
0.587

$$$$

###

Experiment: protease stability score; higher = more stable; yeast display proteolysis, trypsin and chymotrypsin;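 further: relative to predicted unfolded state with 0 unfolded-like and 1 meaning tenfold more protease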

>  <record sequence>
SEEHEEVERLMRIYFEERLTGDWDRWLSNVDPHTRIIIEIGDKRIELHGWKDFLRFLRFIKNITIHHVHIRHVDVQGDKAHVDEEIDVTIGDKRTKITHEMIIIVVNGRIKHVYERYI

>  <protease stability score>
1.44

$$$$
>  <record sequence>
DDEEHSAENFARHFMENLRTGDEDRLHELADPNMQIILHFDGQHEVRHGWESYEYLVRLFGVKHIHINHFEIFYVNGRVHLRIEGHIHQGDKYREVYIHIDINKVNGRWHVESVELRIH

>  <protease stability score>
0.93

$$$$
>  <record sequence>
DEDHKIVEHMVKLIIDSMHTGDEHSIRELFDPNTRMDVNGVDFHGWEHYHKRIEDLRKRADHVTIYIRDMKVINGQAHIHTEMRIDIGDKHLRHRVIIIVLKVDGRWVIEQVIFL

>  <protease stability score>
2.29

$$$$
